Values were extracted from PubChem BioAssay AID256.

Test system: CD2F1 mice, L1210 leukemia ip, survival T/C
Assay: NCI In Vivo Anticancer Drug Screen. Data for tumor model L1210 Leukemia (intraperitoneal) in CD2F1 (CDF1) mice
Conditions: endpoint: mean survival time; dose: 400.0 mg/kg/injection; schedule: Q04DX002 (ip); vehicle: saline with Tween-80; higher = longer survival
Experimental: The antitumor activity of compounds was measured in mice bearing transplantable tumors. Survival or tumor size were measured and the results are expressed as the measurement made in the treated group (T) divided by the measurement made in the vehicle treated control group (C). The tumor model used in this assay is L1210 Leukemia (intraperitoneal) in CD2F1 (CDF1) mice
Inconclusive results and toxic doses are left out.
MEASUREMENT_KIND: T/C

COc1ccc2c(O)c(C)c(=O)n(C)c2c1	93 % of control
CCOc1ccccc1NCN1C(=O)c2ccccc2C1=O	88 % of control
[Cl][Pt+2][Cl].[NH-]C1CCCC2CCC[N-]C12 (stereo not given)	110 % of control

Which value of T/C has been reported for c1ccc(CCSCCSCCc2ccccn2)nc1 in the records?
93 % of control

Could you tell me which T/C is on file for CN(C)C(=O)Nc1cc(Cl)ccc1Cl ?
120 % of control

What value of measured T/C is listed for O=C1C(Cl)=C(c2ccccc2)C(OC2(c3ccccc3)C(Cl)C(=O)C(Cl)C2c2ccccc2)(c2ccccc2)C1Cl (stereo not given) ?
96 % of control

Query (molecule): Cc1cn(CC(O)c2cc3ccccc3[nH]2)c(=O)[nH]c1=O (stereo not given) ; field requested: T/C
93 % of control

Entry O=C(NCc1ccccc1)C(=O)NCc1ccccc1 has what T/C?
90 % of control

Given the molecule COc1ccc(NC(=O)Oc2ccccc2C(C)C)cc1 , what is its reported T/C?
93 % of control

Quick one: T/C of CCOC(=O)C(=C=C(C(=O)OCC)C(=O)OCC)C(=O)OCC ?
98 % of control

Please look up its T/C: CCOC(=O)/C(C#N)=N/Nc1cccc(Cl)c1Cl
100 % of control

Which T/C reading was recorded for the molecule C=C1CC23CC[C@H]4[C@@](C)(CCC[C@@]4(C)C(=O)O)[C@@H]2CC[C@]1(OC1OC(COC(C)=O)C(OC(C)=O)C(OC(C)=O)C1OC1OC(COC(C)=O)C(OC(C)=O)C(OC(C)=O)C1OC(C)=O)C3 (stereo not given in full) ?
96 % of control

Query (molecule): Cc1ccc2cccc(CC(=O)O)c2c1 ; field requested: T/C
91 % of control

# T/C lookup, item O=C1c2ccccc2C(=O)N1CCS(=O)(=O)O
94 % of control

Form field: reported T/C of CC(C)OC(=O)Nc1ncn[nH]1
93 % of control
